Target: Ba/F3 cell EGFR Exon20 ins NPH (Homo sapiens, UniProt P00533, INS773NPH)
Construct: expressed in transfected cells; host or cells: Ba/F3
Experiment: Ba/F3 cell proliferation suppression, EGFR Exon20 ins NPH
Format: cell-based
Conditions: GI50 class; Ba/F3 cell line with NPH inserted at Exon20 of EGFR; 72 hours
quantity.name: Ba/F3 (NPH) Activity

C=CC(=O)Nc1cc(Nc2cc(N3OCC[C@@H]3c3ccc(F)c(F)c3)ncn2)c(OC)cc1N1CCC(N2CCN(CCC)CC2)CC1 [compound 547]    A (GI50 < 50 nM)
C=CC(=O)Nc1cc(Nc2cc(N3OCC[C@@H]3c3cccc(C)c3F)ncn2)c(OC)cc1N1CCC(N2C[C@@H]3C[C@H]2CO3)CC1 [compound 362]    A (GI50 < 50 nM)
C=CC(=O)Nc1cc(Nc2cc(N3OCC[C@@H]3c3cccc(C)c3F)ncn2)c(OC)cc1N1CCN(C2CC2)CC1 [compound 909]    A (GI50 < 50 nM)

###

Test system: scanMAX kinase panel (EGFR mutant, ERBB2, ERBB4)
Test: DiscoverX (eurofin) KINOMEscan (scanMAX platform) kinase profiling
Type: binding
Conditions: EGFR(L861q)
Form field: % inhibition of scanMAX Kinase profiling (one value per entry).
Respond with the bare value in %.

C=CC(=O)Nc1cc(Nc2cc(N3OCC[C@@H]3c3ccccc3)ncn2)c(OC)cc1N1CCC(N2CCN(C)CC2)CC1    100
C=CC(=O)Nc1cc(Nc2cc(N3OCC[C@@H]3c3cc(F)cc(F)c3)ncn2)c(OC)cc1N1CCC(N2CCOCC2)CC1    100
C=CC(=O)Nc1cc(Nc2cc(N3OCC[C@@H]3c3cc(F)cc(F)c3)ncn2)c(OC)cc1N1CCC(N2CCN(CC)CC2)CC1    98
C=CC(=O)Nc1cc(Nc2cc(N3OCC[C@@H]3c3cc(F)cc(F)c3)ncn2)c(OC)cc1N1CCC(N2C[C@H]3C[C@@H]2CO3)CC1    98
C=CC(=O)Nc1cc(Nc2cc(N3OCC[C@@H]3c3cc(F)cc(F)c3)ncn2)c(OC)cc1N1CCC(N2CCN(C3CC3)CC2)CC1    100

// returns reported % inhibition of scanMAX Kinase profiling for input "C=CC(=O)Nc1cc(Nc2cc(N3OCC[C@@H]3c3cc(F)cc(F)c3)ncn2)c(OC)cc1N1CCC(N2C[C@@H]3C[C@H]2CO3)CC1" 97

// returns reported % inhibition of scanMAX Kinase profiling for input "C=CC(=O)Nc1cc(Nc2cc(N3OCC[C@@H]3c3ccccc3)ncn2)c(OC)cc1N(C)CCN(C)C" 100

// returns reported % inhibition of scanMAX Kinase profiling for input "C=CC(=O)Nc1cc(Nc2cc(N3OCC[C@@H]3c3ccccc3)ncn2)c(OC)cc1N1CCN(C)CC1" 100

###

Molecular target: Ba/F3 cell EGFR Exon20 ins NPH (Homo sapiens, UniProt P00533, INS773NPH)
Construct: expressed in transfected cells; host or cells: Ba/F3
Assay: Ba/F3 cell proliferation suppression, EGFR Exon20 ins NPH
Type: cell-based
Conditions: GI50 class; Ba/F3 cell line with NPH inserted at Exon20 of EGFR; 72 hours
quantity.name: Ba/F3 (NPH) Activity

C=CC(=O)Nc1cc(Nc2cc(N3OCC[C@@H]3c3ccc(F)c(F)c3)ncn2)c(OC)cc1N1CCC(N2C[C@H]3C[C@@H]2CO3)CC1 [compound 498]    A (GI50 < 50 nM)
C=CC(=O)Nc1cc(Nc2cc(N3OCC[C@@H]3c3ccc(F)c(Cl)c3F)ncn2)c(OC)cc1N1CCN(CC)CC1 [compound 600]    A (GI50 < 50 nM)
C=CC(=O)Nc1cc(Nc2cc(N3OCC[C@@H]3c3ccc(F)c(Cl)c3)ncn2)c(OC)cc1N1CCC(N2C[C@@H]3C[C@H]2CO3)CC1 [compound 716]    A (GI50 < 50 nM)
